Test system: MDA-N
Experiment: NCI tumour cell line growth inhibition, 48 h
Activity calls are given as the source filed them. No stated cut-off is given here; in the data, active = GI50 up to about 1.1 µM and inactive = higher.
Log the outcome using a class from active, inactive

- Compound: "C/C(=N\\Nc1nc2cc(C)ccc2s1)c1ccccn1"
  Assay Target: "MDA-N"
  Group Label: "inactive"
- Compound: "O=[N+]([O-])c1ccc(Cl)c(CNc2ncnc3c2ncn3C2CCCCO2)c1 (stereo not drawn)"
  Assay Target: "MDA-N"
  Group Label: "inactive"
- Compound: "O=[N+]([O-])/C=C/COCc1cc2c(cc1Br)OCO2"
  Assay Target: "MDA-N"
  Group Label: "inactive"
- Compound: "Cc1cc(S(=O)(=O)Nc2nc(Nc3ccc4ccccc4c3)n[nH]2)c(S)cc1Cl"
  Assay Target: "MDA-N"
  Group Label: "inactive"
- Compound: "N/C(=N\\N=C\\c1cc2ccccc2s1)c1cnccn1"
  Assay Target: "MDA-N"
  Group Label: "inactive"
- Compound: "O=c1cc(NCC2CCCCC2)[nH]c(=O)[nH]1"
  Assay Target: "MDA-N"
  Group Label: "inactive"
- Compound: "O=C1c2c(O)cccc2C(C(=O)CCCCC(=O)C2c3cccc(O)c3C(=O)c3c(O)cccc32)c2cccc(O)c21"
  Assay Target: "MDA-N"
  Group Label: "active"

Now let's try a different one.
input: Field: outcome | Entry: Nc1ncnc2c1nnn2C1C=CC(CP(=O)(O)O)C1 (stereo not drawn)
output: inactive
